- Experimental system: Human Recombinant Matriptase 2 (Homo sapiens, UniProt Q8IU80)
- Construct: purchased Enzo Life Sciences (an in-house preparation was also used) ALX-201-752-1
- Sequence (Q8IU80 whole entry): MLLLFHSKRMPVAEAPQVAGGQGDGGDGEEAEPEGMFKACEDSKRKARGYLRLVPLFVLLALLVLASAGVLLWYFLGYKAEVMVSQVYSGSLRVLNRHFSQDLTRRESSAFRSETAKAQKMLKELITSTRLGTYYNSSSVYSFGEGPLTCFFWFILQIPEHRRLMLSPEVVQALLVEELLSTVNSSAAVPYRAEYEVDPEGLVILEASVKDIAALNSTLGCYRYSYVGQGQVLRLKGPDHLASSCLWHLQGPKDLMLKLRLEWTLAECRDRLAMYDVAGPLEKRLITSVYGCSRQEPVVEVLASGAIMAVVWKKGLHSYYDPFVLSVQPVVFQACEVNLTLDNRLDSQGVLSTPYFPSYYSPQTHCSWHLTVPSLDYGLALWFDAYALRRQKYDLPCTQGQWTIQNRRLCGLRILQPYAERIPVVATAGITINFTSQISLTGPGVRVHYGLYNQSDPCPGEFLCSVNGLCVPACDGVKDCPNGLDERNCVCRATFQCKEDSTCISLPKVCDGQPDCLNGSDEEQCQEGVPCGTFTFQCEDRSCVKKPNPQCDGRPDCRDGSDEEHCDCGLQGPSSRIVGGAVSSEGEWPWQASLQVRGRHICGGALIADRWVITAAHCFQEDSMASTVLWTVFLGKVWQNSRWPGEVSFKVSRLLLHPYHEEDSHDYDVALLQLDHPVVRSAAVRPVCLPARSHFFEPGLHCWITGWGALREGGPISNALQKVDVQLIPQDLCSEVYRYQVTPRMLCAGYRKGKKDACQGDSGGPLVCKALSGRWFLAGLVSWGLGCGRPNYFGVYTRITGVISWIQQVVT
- Protocol notes: Matriptase 2 fluorescence based inhibition assay, Method B (50 mM TRIS pH 7.5, 150 mM NaCl, 0.01% gelatin)
- Type: biochemical
- Conditions used: 1 uM compound; Assay Used = B; read-out: Mar-2 % inhibition at 1 uM
Parameter: inhibition at 1 µM

These recorded examples may help you get a feel for the data.
Compound: N=C(N)c1ccc2c(N)c(C(=O)N[C@H]3CC[C@H](N)CC3)n(Cc3cccc4ccccc34)c2c1 [Compound I-511]
inhibition at 1 µM: 75 to 100%

Compound: N=C(N)c1ccc2cc(C(=O)OCCO)n(Cc3cc(Oc4ncccn4)cc4ccccc34)c2c1 [Compound I-565]
inhibition at 1 µM: 75 to 100%

Compound: CN(C)[C@H]1CC[C@H](NC(=O)c2cc3ccc(C(=N)N)cc3n2Cc2cccc3ccccc23)CC1 [Compound I-469]
inhibition at 1 µM: 75 to 100%

Compound: N=C(N)c1ccc2cc(C(=O)Nc3ncccn3)n(Cc3cccc4ccccc34)c2c1 [Compound I-573]
inhibition at 1 µM: 50 to 75%

Compound: CC(C)(C)OC(=O)N[C@H]1CC[C@H](NC(=O)c2cn(Cc3cccc4ccccc34)c3cc(C(=N)N)ccc23)CC1 [Compound I-518]
inhibition at 1 µM: 0 to 25%

Compound: CC(C)(C)OC(=O)NCc1ccc2cc(C(=O)O)n(Cc3cccc4ccccc34)c2c1 [Compound I-539]
inhibition at 1 µM: 0 to 25%

The following compounds each have a reported value; give each one's inhibition at 1 µM.
1. N=C(N)c1ccc2cc(C(=O)N[C@H]3CC[C@H](N)CC3)n(CCS(=O)(=O)c3cccc4ccccc34)c2c1 [Compound I-501]
2. N=C(N)c1ccc2c(C(=O)N[C@H]3CC[C@H](N)CC3)cn(Cc3ccc4ccccc4c3)c2c1 [Compound I-520]
3. CC(C)(C)OC(=O)NC(=N)c1ccc2cc(C(=O)N3CCC(CO)CC3)n(Cc3cccc4ccccc34)c2c1 [Compound I-426]

["0 to 25%", "0 to 25%", "0 to 25%"]

The following compounds each have a reported value; give each one's inhibition at 1 µM.
1. N=C(N)c1ccc2cc(C(=O)NCC3CCNCC3)[nH]c2c1 [Compound I-496]
2. N=C(N)c1ccc2cc(C(=O)NC3CCCCC3)n(Cc3cccc4ccccc34)c2c1 [Compound I-438]
3. CN1CCN(C(=O)c2cc3ccc(C(=N)N)cc3n2Cc2cccc3ccccc23)CC1 [Compound I-443]
4. N=C(N)c1ccc2cc(C(=O)N[C@H]3CC[C@H](N)CC3)n(Cc3cncc4ccccc34)c2c1 [Compound I-507]
5. NCc1ccc2cc(C(=O)O)n(Cc3cccc4ccccc34)c2c1 [Compound I-538]
6. CNC(=N)c1ccc2cc(C(=O)NC3CCC(NC(=O)OC(C)(C)C)CC3)n(Cc3ccc4ccccc4c3)c2c1 (centres unmarked) [Compound I-412]
7. COC(=O)NCCOC(=O)c1cc2ccc(C(=N)N)cc2n1Cc1cc(Oc2ccccc2)cc2ccccc12 [Compound I-555]
8. CC(C)COC(=O)NC(=N)c1ccc2cc(C(=O)O)n(Cc3cc(Oc4ncccn4)cc4ccccc34)c2c1 [Compound I-595]

["0 to 25%", "25 to 50%", "0 to 25%", "50 to 75%", "25 to 50%", "25 to 50%", "25 to 50%", "25 to 50%"]

The following compounds each have a reported value; give each one's inhibition at 1 µM.
1. N=C(N)c1ccc2cc(C(N)=O)n(Cc3cccc4ccccc34)c2c1 [Compound I-437]
2. N=C(N)c1ccc2cc(C(=O)N[C@H]3CC[C@H](N)CC3)n(Cc3ccccc3-c3ccccc3)c2c1 [Compound I-510]
3. NCc1ccc2cc(C(=O)N[C@H]3CC[C@H](O)CC3)n(Cc3cccc4ccccc34)c2c1 [Compound I-532]
4. N=C(N)c1ccc2cc(-c3nnc([C@H]4CC[C@H](N)CC4)s3)n(Cc3cccc4ccccc34)c2c1 [Compound I-526]

1: 75 to 100%; 2: 0 to 25%; 3: 25 to 50%; 4: 75 to 100%

The following compounds each have a reported value; give each one's inhibition at 1 µM.
1. N=C(N)c1ccc2cc(C(=O)NC3CCNC(=O)C3)n(Cc3cc(Oc4ncccn4)cc4ccccc34)c2c1 (racemic) [Compound I-560]
2. CC(C)(C)OC(=O)NC(=N)c1ccc2cc(C(=O)N3CCCN(C(=O)OC(C)(C)C)CC3)n(Cc3cccc4ccccc34)c2c1 [Compound I-423]
3. CN(C)C(=O)Sc1cc(Cn2c(C(=O)O)cc3ccc(C(=N)N)cc32)c2ccccc2c1 [Compound I-575]
4. CN(C)[C@H]1CC[C@@H](NC(=O)c2cc3ccc(C(=N)N)cc3n2Cc2cccc3ccccc23)CC1 [Compound I-470]
5. N=C(N)c1ccc2cc(C(=O)N[C@H]3CC[C@H](N)CC3)n(Cc3c(Cl)cccc3Cl)c2c1 [Compound I-503]
6. CC(C)(C)OC(=O)N[C@H]1CC[C@H](c2nnc(-c3cc4ccc(C(=N)N)cc4n3Cc3cccc4ccccc34)o2)CC1 [Compound I-524]
7. N=C(N)c1ccc2cc(C(=O)N[C@H]3CC[C@H](C(=O)O)CC3)n(Cc3cccc4ccccc34)c2c1 [Compound I-473]
8. CN1CCC(COC(=O)c2cc3ccc(C(=N)N)cc3n2Cc2cc(Oc3ncccn3)cc3ccccc23)CC1 [Compound I-562]

["50 to 75%", "0 to 25%", "0 to 25%", "75 to 100%", "0 to 25%", "25 to 50%", "25 to 50%", "50 to 75%"]

---

- Experimental system: Human Recombinant Matriptase 2 (Homo sapiens)
- Construct: purchased Enzo Life Sciences (an in-house preparation was also used) ALX-201-752-1
- Protocol notes: Matriptase 2 fluorescence based inhibition assay, Method A (100 mM TRIS pH 9, 1 mg/mL BSA)
- Format: biochemical
- Conditions used: 1 uM; Assay Used A; read-out: Mar-2 % inhibition at 1 uM
Parameter: inhibition at 1 µM

These recorded examples may help you get a feel for the data.
Compound: N=C(N)c1ccc2cc(C(=O)Nc3cccc(-c4cnco4)c3)n(Cc3ccc(C(N)=O)cc3)c2c1 [Compound I-163]
Reported: 0 to 25%
--
Compound: CC[C@@H](NC(=O)c1cc2ccc(C(=N)N)cc2n1Cc1ccc(C(N)=O)cc1)c1ccccc1 [Compound I-96]
Reported: 25 to 50%
--
Compound: N=C(N)c1ccc2cc(C(=O)Nc3ccc(Cl)nc3)n(Cc3ccc(C(N)=O)cc3)c2c1 [Compound I-174]
Reported: 0 to 25%
--
Compound: N=C(N)c1ccc2cc(C(=O)Nc3cccc(N4CCCC4)n3)n(Cc3ccc(C(N)=O)cc3)c2c1 [Compound I-180]
Reported: 25 to 50%
--
Compound: Cc1ccc(NC(=O)c2cc3ccc(C(=N)N)cc3n2Cc2ccc(C(N)=O)cc2)cc1O [Compound I-71]
Reported: 0 to 25%
--
Compound: N=C(N)c1ccc2cc(C(=O)NC3CCNCC3)n(Cc3ccc(C(F)(F)F)cc3)c2c1 [Compound I-5]
Reported: 25 to 50%
--
Compound: C[C@H](NC(=O)OC(C)(C)C)C(=O)O/N=C(\N)c1ccc2cc(C(=O)Nc3cccc(N4CCCC4)c3)n(Cc3ccc(C(N)=O)cc3)c2c1 [Compound I-158]
Reported: 0 to 25%
--
Compound: N=C(N)c1ccc2cc(C(=O)NC3CCC(F)(F)CC3)n(CCS(=O)(=O)c3ccccc3)c2c1 [Compound I-48]
Reported: 25 to 50%

The following compounds each have a reported value; give each one's inhibition at 1 µM.
1. N=C(N)c1ccc2cc(C(=O)NC3CCN(C(=O)CCN)CC3)n(Cc3ccc(C(F)(F)F)cc3)c2c1 [Compound I-8]
2. N=C(N)c1ccc2cc(C(=O)NCc3ccncc3)n(Cc3ccc(C(N)=O)cc3)c2c1 [Compound I-168]

["25 to 50%", "25 to 50%"]

The following compounds each have a reported value; give each one's inhibition at 1 µM.
1. CC(C)c1cccc(NC(=O)c2cc3ccc(C(=N)N)cc3n2Cc2ccc(C(N)=O)cc2)c1 [Compound I-79]
2. N=C(N)c1ccc2cc(C(=O)Nc3cccc4c3CCC4)n(Cc3ccc(C(N)=O)cc3)c2c1 [Compound I-91]

1. 0 to 25%
2. 0 to 25%

The following compounds each have a reported value; give each one's inhibition at 1 µM.
1. C[C@H]1CCCN1c1cccc(NC(=O)c2cc3ccc(C(=N)N)cc3n2Cc2ccc(C(N)=O)cc2)c1 [Compound I-124]
2. N=C(N)c1ccc2cc(C(=O)N[C@H]3CC[C@H](N)CC3)n(Cc3ccc(C(F)(F)F)cc3)c2c1 [Compound I-4]
3. N=C(N)c1ccc2cc(C(=O)Nc3ccc(C(N)=O)cc3)n(CCc3ccccc3)c2c1 [Compound I-25]

0 to 25%
25 to 50%
0 to 25%

Taken from patent US12428415B2.
